Reported values of inhibition for individual entries
- measured.on: Serine/threonine-protein kinase pim-2 (Homo sapiens)
- run.parameters: at 0.1 µM
readout.label: inhibition (%)

1) CCn1c(-c2nonc2N)nc2cncc(C(=O)N3CC[C@H](N)C3)c21 | 9.73
2) Fc1cccc(COc2ccc(Nc3ncnc4cc(-c5ccc[nH]5)sc34)cc2Cl)c1 | -3.43
3) CCn1c(-c2nonc2N)nc2ccncc21 | 0.35
4) c1cnn2ncc(-c3ccnc(Nc4ccc5c(c4)OCCO5)n3)c2c1 | 0.25
5) CN1CCC(C(=O)Nc2n[nH]c3nnc(-c4ccccc4)cc23)CC1 | 0.6
6) Nc1ncnc2occ(-c3ccc(NC(=O)Nc4cccc(C(F)(F)F)c4)cc3)c12 | 0.42
7) Cn1cc(C=C2C(=O)Nc3cccnc32)c2ccccc21 | 0.38
8) O=C1NC(=O)C(c2ccccc2Cl)=C1Nc1cccc(O)c1 | -0.21
9) CN(C)c1cc2c(Nc3ccc4nc(Cc5ccccc5)[nH]c4c3)ncnc2cn1 | -0.82
10) CS(=O)(=O)CCNCc1ccc(-c2ccc3ncnc(Nc4ccc(OCc5ccccc5)c(Cl)c4)c3c2)o1 | -0.34
11) Nc1nc(-c2ccc3c(c2)C(=Cc2cc(Br)c(O)c(Br)c2)C(=O)N3)cs1 | 10.8
12) CCn1c(-c2nonc2N)nc2c(N3CCCC3)nccc21 | -0.33
13) N#Cc1c(NC(=O)c2cccc3ccccc23)sc2c1CCCC2 | -0.34
14) COc1ccc(-c2ccncc2)cc1C(N)=O | -0.49
15) CC1=C(C(=O)Nc2ccc3[nH]ncc3c2)C(c2ccc(F)cc2)NC(=O)N1 (stereo not drawn) | -0.16
16) CCn1c(-c2nonc2N)nc2cnc(Oc3cccc(NC(=O)c4ccc(OCCN5CCOCC5)cc4)c3)cc21 | -0.49
17) Nc1nc(-c2ccccn2)c(-c2ccc3ncccc3n2)s1 | -0.67
18) CCCN1CCC(Oc2cc(Nc3nc(Nc4cccc(F)c4C(N)=O)c4cc[nH]c4n3)c(OC)cc2Cl)CC1 | 0.5

###

- measured.on: Serine/threonine-protein kinase pim-3 (Homo sapiens) (UniProt Q86V86)
- run.parameters: at 1 µM
- Description: GSK_PKIS: PIM3 mean inhibition at 1 uM [Nanosyn]
readout.label: inhibition (%)

1) COc1cc2ncn(-c3cc(O[C@@H](C)c4ccccc4Cl)c(C(N)=O)s3)c2cc1OC | 4.24
2) NC(=O)c1cccc(Nc2nccc(Nc3cccc4[nH]ncc34)n2)c1 | 3.49
3) COc1cc2c(cc1Nc1nc(N3CCc4ccccc43)c3cc[nH]c3n1)N(C(=O)CN(C)C)CC2 | -1.08

###

- measured.on: Serine/threonine-protein kinase BRSK1 (Homo sapiens)
- run.parameters: at 0.1 µM
- Description: GSK_PKIS: BRSK1 mean inhibition at 0.1 uM [Nanosyn]
Listing: inhibition of selected molecules
readout.label: inhibition (%)

1. CCN1CCC(CC(=O)Nc2n[nH]c3nc(-c4cccs4)c(Br)cc23)CC1 | 3.39
2. CC(C)=Cc1cccc2c1/C(=N/Nc1ccc(S(N)(=O)=O)cc1)C(=O)N2 | 7.32
3. CCn1c(-c2nonc2N)nc2ccncc21 | 1.52
4. CS(=O)(=O)CCNCc1nc(-c2ccc3ncnc(Nc4ccc(F)c(Cl)c4)c3c2)cs1 | 0.92
5. CCc1cccc(NC(=O)Nc2ccc(Oc3ccc4nc(NC(=O)OC)[nH]c4c3)cc2)c1 | 0.6
6. COc1cc2c(cc1Nc1nc(N3CCc4ccccc43)c3cc[nH]c3n1)N(C(=O)CN(C)C)CC2 | 2.17
7. CC1=C(C(=O)Nc2ccc3[nH]ncc3c2)C(c2ccc3ccccc3c2)CC(=O)N1 (stereo not given) | 1.91
8. CC1=C(C(=O)Nc2ccc3[nH]ncc3c2)C(c2ccc(Cl)c(Cl)c2)CC(=O)N1 (stereo not given) | 1.14
9. COc1ccc(-c2ccncc2)cc1C(N)=O | 3.31
10. Nc1ncnc2occ(-c3ccc(NC(=O)Nc4cc(C(F)(F)F)cc(C(F)(F)F)c4)cc3)c12 | 1.78
